assay: ATG_TA_CIS: Attagene CIS-FACTORIAL HepG2 Assay for human TA Basal Promoter (AID 2282964); conditions: HepG2 Attagene CIS-factorial TA basal promoter reporter; actives raise or lower the signal
Calls of active or inactive are those of the source. The calls were made as follows: active = hit-call score of the fitted dose curve at least 0.9, where 1 is the maximum; inactive = score below 0.9.
Returns: one label drawn from TRUE (active), FALSE (inactive)

GET /call?item= "Cc1ccccc1Cl" returns the recorded outcome of this test.
FALSE

GET /call?item= CC(=O)C(C)=CC1C(C)=CCCC1(C)C (stereo not given) returns the recorded outcome of this test.
FALSE

GET /call?item= "CCOC(=O)CCC(=O)OCC" returns the recorded outcome of this test.
FALSE

GET /call?item= "CCc1c(C(=O)NN2CCCCC2)nn(-c2ccc(Cl)cc2Cl)c1-c1ccc(Br)cc1" returns the recorded outcome of this test.
FALSE

GET /call?item= "CCCCCCCCCCC" returns the recorded outcome of this test.
FALSE

GET /call?item= "CCCCCC(=O)O" returns the recorded outcome of this test.
FALSE

GET /call?item= "CNC(=O)[C@H]1O[C@@H](n2cnc3c(NCc4cc(Cl)ccc4OCc4cc(C)no4)ncnc32)[C@H](O)[C@@H]1N" returns the recorded outcome of this test.
FALSE

GET /call?item= "CC=Cc1ccc(O)c(OC)c1" returns the recorded outcome of this test.
FALSE

GET /call?item= "C=CCOC(=O)c1ccccc1C(=O)OCC=C" returns the recorded outcome of this test.
FALSE

GET /call?item= "CC(=O)OC/C=C(\C)CCC=C(C)C" returns the recorded outcome of this test.
FALSE

GET /call?item= Cc1nc(-c2ccc3c(c2)CCN(CCC2CCC(NC(=O)/C=C/c4ccc(F)cc4)CC2)CC3)no1 (stereo not given) returns the recorded outcome of this test.
FALSE

GET /call?item= "COCCOCCOC" returns the recorded outcome of this test.
FALSE

GET /call?item= "CCOc1ccc2c(c1)C(C)=CC(C)(C)N2" returns the recorded outcome of this test.
TRUE

GET /call?item= "CC(=O)OCCOCCOCCOC(C)=O" returns the recorded outcome of this test.
FALSE

GET /call?item= CC(CO)OC(C)CO (stereo not given) (tested in a mixture with another compound) returns the recorded outcome of this test.
FALSE
